Parameter: EC50. Scope: all listed entries.
Tested on: Primary human epidermal keratinocytes, HeKa
ASSAY_TEXT: HeKa cytokine release (IL-8)
Assay type: cell-based
CONDITION_LABEL: 6 h at 37° C., normalised to 1.5×10^−7 M PEP0005, read-out: HeKa cytokine release (IL-8) Rel EC50 range

Reference set, count: 2
Sample CC1=C[C@]23C(=O)[C@@H](C=C(CO)[C@@H](O)[C@]2(O)[C@H]1Oc1noc2ccc(Cl)cc12)[C@H]1[C@@H](C[C@H]3C)C1(C)C ; EC50 observed: < 20 nM

Sample CC1=C[C@]23C(=O)[C@@H](C=C(CO)[C@@H](O)[C@]2(O)[C@H]1Oc1ncc(C(F)(F)F)cn1)[C@H]1[C@@H](C[C@H]3C)C1(C)C ; EC50 observed: ≥ 100 nM

Others:
Sample CC1=C[C@]23C(=O)[C@@H](C=C(CO)[C@@H](O)[C@]2(O)[C@H]1Oc1noc(C(C)C)n1)[C@H]1[C@@H](C[C@H]3C)C1(C)C ; EC50 observed: 20 to 100 nM

Sample CC1=C[C@]23C(=O)[C@@H](C=C(CO)[C@@H](O)[C@]2(O)[C@H]1Oc1cc(C(F)(F)F)ccn1)[C@H]1[C@@H](C[C@H]3C)C1(C)C ; EC50 observed: 20 to 100 nM

Every entry's value here was drawn from patent US9422309B2.
